# Experimental target: GR (Homo sapiens, UniProt P04150)
# Sequence (P04150 whole entry): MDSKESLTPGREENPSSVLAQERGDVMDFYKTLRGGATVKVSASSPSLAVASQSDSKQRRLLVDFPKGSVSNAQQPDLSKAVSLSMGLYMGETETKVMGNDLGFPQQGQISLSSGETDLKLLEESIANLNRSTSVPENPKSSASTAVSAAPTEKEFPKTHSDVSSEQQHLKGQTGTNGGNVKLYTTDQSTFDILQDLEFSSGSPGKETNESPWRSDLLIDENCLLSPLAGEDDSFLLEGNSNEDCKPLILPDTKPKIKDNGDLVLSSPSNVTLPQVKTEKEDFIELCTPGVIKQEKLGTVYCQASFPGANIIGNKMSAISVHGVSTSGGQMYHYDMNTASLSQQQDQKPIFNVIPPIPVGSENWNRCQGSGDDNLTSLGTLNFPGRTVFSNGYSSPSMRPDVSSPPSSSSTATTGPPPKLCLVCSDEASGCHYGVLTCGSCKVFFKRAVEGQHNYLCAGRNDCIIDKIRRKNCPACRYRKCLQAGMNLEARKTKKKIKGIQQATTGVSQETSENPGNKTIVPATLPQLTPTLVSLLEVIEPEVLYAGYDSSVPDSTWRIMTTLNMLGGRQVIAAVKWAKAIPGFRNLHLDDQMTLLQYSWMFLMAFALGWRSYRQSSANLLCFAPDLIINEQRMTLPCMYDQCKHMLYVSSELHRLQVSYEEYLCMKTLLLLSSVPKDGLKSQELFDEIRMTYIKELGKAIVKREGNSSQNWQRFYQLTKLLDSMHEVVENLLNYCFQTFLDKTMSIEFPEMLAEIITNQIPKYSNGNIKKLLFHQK
# Procedure details: GR competitive radioligand binding assay
Assay metric: IC50 (nM)
Please reply with the bare figure in nM and do not write the unit itself.

The recorded IC50 for C[C@]12CC[C@@H]3c4ccc(O)cc4C[C@@H](CCCCCCCCC[S+]([O-])CCCC(F)(F)C(F)(F)F)[C@H]3[C@@H]1CC[C@@H]2O (stereo partly shown) is 817

---

# Procedure details: GDC-0810 mouse pharmacokinetics
# Cond: plasma, po, 100 mg/kg/day
Assay metric: Cmax (ng/mL)
Please reply with the bare figure in ng/mL and do not write the unit itself.

The recorded Cmax for CC/C(=C(/c1ccc(/C=C/C(=O)O)cc1)c1ccc2[nH]ncc2c1)c1ccc(F)cc1Cl [GDC-0810] is 9310

---

# Procedure details: GDC-0810 mouse pharmacokinetics
# Cond: plasma, po, 10 mg/kg/day
Assay metric: half-life
Please append the unit to your numeric answer.

The recorded half-life for CC/C(=C(/c1ccc(/C=C/C(=O)O)cc1)c1ccc2[nH]ncc2c1)c1ccc(F)cc1Cl [GDC-0810] is 8 h

---

# Procedure details: GDC-0810 mouse pharmacokinetics
# Cond: plasma, po, 10 mg/kg/day
Assay metric: Tmax (h)
Please reply with the bare figure in h and do not write the unit itself.

The recorded Tmax for CC/C(=C(/c1ccc(/C=C/C(=O)O)cc1)c1ccc2[nH]ncc2c1)c1ccc(F)cc1Cl [GDC-0810] is 1

---

# Experimental target: PR-A (Homo sapiens, UniProt P06401)
# Sequence (P06401 165-933): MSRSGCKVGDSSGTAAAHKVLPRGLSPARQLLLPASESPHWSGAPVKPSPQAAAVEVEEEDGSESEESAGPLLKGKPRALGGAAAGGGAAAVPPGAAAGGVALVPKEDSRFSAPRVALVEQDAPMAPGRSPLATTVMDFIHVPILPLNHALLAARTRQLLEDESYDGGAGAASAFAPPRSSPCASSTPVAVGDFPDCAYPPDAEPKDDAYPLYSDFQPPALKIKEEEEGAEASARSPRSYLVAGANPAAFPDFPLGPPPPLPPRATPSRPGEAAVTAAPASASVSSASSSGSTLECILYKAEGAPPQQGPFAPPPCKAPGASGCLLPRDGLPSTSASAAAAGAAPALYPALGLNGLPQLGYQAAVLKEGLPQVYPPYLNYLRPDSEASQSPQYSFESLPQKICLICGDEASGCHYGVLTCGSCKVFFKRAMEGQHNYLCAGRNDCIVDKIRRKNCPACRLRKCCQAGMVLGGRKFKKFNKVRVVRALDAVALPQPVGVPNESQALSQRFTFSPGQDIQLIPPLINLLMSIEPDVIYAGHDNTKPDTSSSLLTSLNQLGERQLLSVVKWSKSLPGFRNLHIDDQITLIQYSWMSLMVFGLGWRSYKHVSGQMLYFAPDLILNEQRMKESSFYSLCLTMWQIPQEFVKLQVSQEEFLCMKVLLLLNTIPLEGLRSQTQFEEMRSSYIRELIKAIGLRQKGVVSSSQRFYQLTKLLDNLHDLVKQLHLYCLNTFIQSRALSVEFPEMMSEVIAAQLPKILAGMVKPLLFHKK
# Procedure details: PR-A transcriptional reporter assay, antagonist mode (HEPG2 cells)
Assay metric: IC50 (µM)
Please reply with the bare figure in µM and do not write the unit itself.

The reported IC50 value, PR-A (Homo sapiens, UniProt P06401), for CC/C(=C(\c1ccc(O)cc1)c1ccc(OCCN(C)C)cc1)c1ccccc1 [4-OH Tam, 4-hydroxytamoxifen] reads 12

---

# Procedure details: GDC-0810 mouse pharmacokinetics
# Cond: plasma, po, 10 mg/kg/day
Assay metric: AUC(0-t) (ng·h/mL)
Please reply with the bare figure in ng·h/mL and do not write the unit itself.

The recorded AUC(0-t) for `CC/C(=C(/c1ccc(/C=C/C(=O)O)cc1)c1ccc2[nH]ncc2c1)c1ccc(F)cc1Cl` is 5500

---

# Procedure details: GDC-0810 mouse pharmacokinetics
# Cond: plasma, po, 100 mg/kg/day
Assay metric: AUC(0-t) (ng·h/mL)
Please reply with the bare figure in ng·h/mL and do not write the unit itself.

The recorded AUC(0-t) for CC/C(=C(/c1ccc(/C=C/C(=O)O)cc1)c1ccc2[nH]ncc2c1)c1ccc(F)cc1Cl [GDC-0810] is 94100

---

# Procedure details: GDC-0810 mouse pharmacokinetics
# Cond: plasma, intravenous
Assay metric: Vd (L/kg)
Please reply with the bare figure in L/kg and do not write the unit itself.

The recorded Vd for `CC/C(=C(/c1ccc(/C=C/C(=O)O)cc1)c1ccc2[nH]ncc2c1)c1ccc(F)cc1Cl` is 1.2

---

# Procedure details: GDC-0810 mouse pharmacokinetics
# Cond: plasma, po
Assay metric: AUC(0-inf)
Please append the unit to your numeric answer.

The recorded AUC(0-inf) for `CC/C(=C(/c1ccc(/C=C/C(=O)O)cc1)c1ccc2[nH]ncc2c1)c1ccc(F)cc1Cl` is 8800 ng·h/mL

---

# Procedure details: GDC-0810 mouse pharmacokinetics
# Cond: plasma, po, 100 mg/kg/day
Assay metric: concentration at 24 h

The recorded concentration at 24 h for CC/C(=C(/c1ccc(/C=C/C(=O)O)cc1)c1ccc2[nH]ncc2c1)c1ccc(F)cc1Cl [GDC-0810] is 216 ng/mL

---

# Procedure details: GDC-0810 mouse pharmacokinetics
# Cond: plasma, po, 30 mg/kg/day
Assay metric: AUC(0-t) (ng·h/mL)
Please reply with the bare figure in ng·h/mL and do not write the unit itself.

The recorded AUC(0-t) for `CC/C(=C(/c1ccc(/C=C/C(=O)O)cc1)c1ccc2[nH]ncc2c1)c1ccc(F)cc1Cl` is 21500

---

# Procedure details: GDC-0810 mouse pharmacokinetics
# Cond: plasma, intravenous
Assay metric: clearance (mL/min/kg)
Please reply with the bare figure in mL/min/kg and do not write the unit itself.

The recorded clearance for CC/C(=C(/c1ccc(/C=C/C(=O)O)cc1)c1ccc2[nH]ncc2c1)c1ccc(F)cc1Cl [GDC-0810] is 11
